# Test system: KB-3-1
# assayProtocol: Cytotoxic Profiling of Annotated Libraries Using Quantitative High-Throughput Screening (AID 1296008); also: % is scaled to controls: 0 for no effect and ±100 for the full control effect; nearly all actives have a fitted effect of over 60% in size
# conditionDetails: Five cell lines viability, CellTiter-Glo ATP luminescence, 48-72 h; active compounds read low
Results filed as inconclusive are left out.
recordedEndpoint: max response (%)
API: value field is a number in %; no unit string.

Examples from the recorded data:
CC(C)(O)CNc1nc(Nc2ccnc(C(F)(F)F)c2)nc(-c2cccc(C(F)(F)F)n2)n1	4.85
CC(C)N(C[C@H]1O[C@@H](n2cnc3c(N)ncnc32)[C@H](O)[C@@H]1O)C1CC(CCc2nc3ccc(C(C)(C)C)cc3[nH]2)C1 (stereo not given in full)	5.25
CC1OC(O[C@H]2[C@@H](O)C[C@@]3(C)C([C@H](O)C[C@]4(C)C3CC=C3C5CC(C)(C)CC[C@]5(C(=O)OC5OC(CO)C(O)C(O)C5OC5OCC(OC6OCC(OC7OCC(O)C(O)C7O)C(O)C6O)C(OC6OCC(O)(CO)C6O)C5O)CC[C@]34C)[C@]2(C)CO)C(O)C(O)C1O (stereo not given in full)	0.161
CCOc1ccc(C(Nc2ccccn2)c2ccc3ccc(C)nc3c2O)cc1C (stereo not given)	-0.87
CC(=O)c1c(O)cc2cccc3c2c1CC(C)(O)O3 (stereo not given)	4.55

Incoming: Item `Oc1ccc([C@H]2COc3cc(O)ccc3C2)cc1` with KB-3-1 - max response?
Outgoing: 0.946

Incoming: // fetch KB-3-1 max response for `CC(C)C(=O)OCC(=O)[C@@]12O[C@H](C3CCCCC3)O[C@@H]1C[C@H]1[C@@H]3CCC4=CC(=O)C=C[C@]4(C)[C@H]3[C@@H](O)C[C@@]12C`
Outgoing: -5.72

Incoming: API: value(readout= max response, system= KB-3-1, query= `CCOc1ccc(-c2ccc(Cn3c(CC(C)(C)C(=O)O)c(SC(C)(C)C)c4cc(OCc5ccc(C)cn5)ccc43)cc2)cn1` )
Outgoing: -5.24

Incoming: Test system KB-3-1; read-out max response; what value for `O=C(NN1CCCCC1)c1nn(-c2ccc(Cl)cc2Cl)c(-c2ccc(C#Cc3ccc(C(F)(F)F)cc3)s2)c1CNS(=O)(=O)N1CCCC1` ?
Outgoing: 4.58

Incoming: KB-3-1 / max response / `C=C1CC/C=C(/CO)C(=O)C[C@@H]2[C@@H]1CC2(C)C` : value?
Outgoing: 2.82

Incoming: Request body: readout max response, system KB-3-1, query CC1[C@@H](O)[C@@H](O)C2[C@]3(C)C(C[C@H]4OC(=O)[C@H](O)[C@]1(O)[C@@]24C)C(C)(O)C[C@H](O)[C@H]3O (stereo not given in full) . Return the value.
Outgoing: 4.32

Incoming: Field: max response (KB-3-1). Entry: COC1C=C([C@@H]2CC=C3[C@@]4(C)C(CC[C@]32C)[C@@]2(C)C=CC(=O)C(C)(C)C2C[C@H]4OC(C)=O)C(=O)O1 (stereo not given in full)
Outgoing: -0.943

Incoming: API: value(readout=max response, system=KB-3-1) for record `O=CCCCC=O`
Outgoing: -2.08

Incoming: Form field: max response recorded for `CC(=O)N(O)CCCCCN1C(=O)CCC1=O` with KB-3-1 (enter value)
Outgoing: 2.57

Incoming: Notebook entry, KB-3-1 assay: max response of COc1cc(/C=C/C(=O)OC(C)(C)C(OC2OC(CO)C(O)C(O)C2O)C(=O)OCc2ccc(OC3OC(CO)C(O)C(O)C3O)cc2)ccc1O (stereo not given) = ?
Outgoing: 5.7

Incoming: // fetch KB-3-1 max response for `N[C@@H](CC(=O)N1CCn2c(nnc2C(F)(F)F)C1)Cc1[nH]nc2c(F)c(F)ccc12`
Outgoing: -3.58

----------
# Tested on: 7G8
# assayProtocol: qHTS profiling for inhibitors of Plasmodium falciparum proliferation (AID 504749); also: nearly all actives have a fitted effect of over 60% in size
# conditionDetails: P. falciparum in erythrocytes, SYBR Green DNA, 72 h; series mostly up to 28.7 µM
Records with an inconclusive call do not appear. Calls of active or inactive are those of the source. Calls come from the whole dose curve; as a rule, active = well fitted inhibition curve with a large enough effect; inconclusive = small, poorly fitted or top-dose-only effect; inactive = flat fitted curve, though single readings scatter.
Select the matching outcome among active, inactive

Cc1cn([C@H]2C[C@H](O)[C@@H](CO)O2)c(=O)[nH]c1=O	inactive

Incoming: Identify the outcome logged in this assay for the molecule shown: CC(=O)Oc1c(C)cc(OCC(O)CNC(C)C)c(C)c1C (stereo not drawn)
Outgoing: inactive

Incoming: Any idea what this test logged for `CC(C)=O` ?
Outgoing: inactive

Incoming: Dear colleague, could you share the recorded outcome for `COc1ccc2c3c1O[C@H]1C[C@@H](O)C=C[C@@]31CCN(C)C2` when you have a moment?
Outgoing: inactive

Incoming: For `CCN(CC)Cc1cc(Nc2ccnc3cc(Cl)ccc23)ccc1O` , what call appears in the results of this test?
Outgoing: active

Incoming: Assay result, entry `CN=C(NC#N)Nc1ccc(C2=NNC(=O)C[C@@H]2C)cc1` — outcome?
Outgoing: inactive

Incoming: What did this assay record as the result for `Clc1cc(Cl)c(OCC#CI)cc1Cl` ?
Outgoing: active

Incoming: For this molecule, state the assay outcome: CC(O)CO (stereo not drawn)
Outgoing: inactive

Incoming: Any idea what this test logged for `C#CCOc1ccc2c(C)cc(=O)oc2c1` ?
Outgoing: inactive

Incoming: Please indicate how the test categorized `O=C(Nc1ccc(Br)cc1)c1cc(Br)c(Br)s1` .
Outgoing: active

----------
# Test system: ICS
# assayProtocol: qHTS profiling for inhibitors of Plasmodium falciparum proliferation (AID 504749); also: nearly all actives have a fitted effect of over 60% in size
# conditionDetails: P. falciparum in erythrocytes, SYBR Green DNA, 72 h; series mostly up to 28.7 µM
Records with an inconclusive call do not appear. The source made the active and inactive calls. The call rests on the fitted dose curve; in most records, active means well fitted inhibition curve with a large enough effect; inconclusive means small, poorly fitted or top-dose-only effect; inactive means flat fitted curve, though single readings scatter.
Give your call using only these classes: T = active, F = inactive

CO[C@H](C(=O)[C@@H](O)[C@@H](C)O)C1Cc2cc3cc(O[C@H]4C[C@@H](O[C@H]5C[C@@H](O)[C@H](O)[C@@H](C)O5)[C@@H](O)[C@@H](C)O4)c(C)c(O)c3c(O)c2C(=O)[C@H]1O[C@H]1C[C@@H](O[C@H]2C[C@@H](O[C@H]3C[C@](C)(O)[C@H](O)[C@@H](C)O3)[C@H](O)[C@@H](C)O2)[C@H](O)[C@@H](C)O1 (some centres undefined)	T
O=C(O)c1cc(O)c2c(c1)[O][Bi][O]2	F
O=C(COc1ccc(Cl)cc1)OCCNC12CC3CC(CC(C3)C1)C2	F
CC(Cc1ccc(O)c(O)c1)C(C)Cc1ccc(O)c(O)c1 (centres undefined)	T
Cc1cn([C@H]2C[C@H](O)[C@@H](CO)O2)c(=O)[nH]c1=O	F

Incoming: Status in this test for `CC(=O)Oc1cc(C)c(OC(C)=O)c2ccccc12` ?
Outgoing: T

Incoming: # fetch the recorded call for `CC(C)=O` here
Outgoing: F

Incoming: So what was the verdict on COC(=O)C1=C(C#N)NC(C)=C(C(=O)OC(C)C)C1c1cccc([N+](=O)[O-])c1 (centres undefined) in this test?
Outgoing: T

Incoming: Each compound tested received a call. Report the one for `C=CCSSSCC=C` .
Outgoing: F

----------
# Test system: AS120
# assayProtocol: qHTS profiling for inhibitors of Plasmodium falciparum proliferation (AID 504749); also: nearly all actives have a fitted effect of over 60% in size
# conditionDetails: P. falciparum in erythrocytes, SYBR Green DNA, 72 h; series mostly up to 28.7 µM
# Experimental: NIH National Institute of Allergy and Infectious Diseases [NIAID] NIH Chemical Genomics Center [NCGC] […] Because mature erythrocytes lack DNA, only Plasmodium-derived DNA is detected. NCGC Assay Protocol Summary: The SYBR Green viability assay was adapted from a method described previously (Plouffe et al., 2008). […] The following morning, fluorescence intensity at 485(14) nm excitation and 535(25) nm emission wavelengths was measured on an EnVision (Perkin Elmer) plate reader. […]
Results filed as inconclusive are left out. Active and inactive are the calls of the source. The call rests on the fitted dose curve; in most records, active means well fitted inhibition curve with a large enough effect; inconclusive means small, poorly fitted or top-dose-only effect; inactive means flat fitted curve, though single readings scatter.
In this exercise, the only acceptable responses are active, inactive

Worked examples, 2 molecules total:
CO[C@H](C(=O)[C@@H](O)[C@@H](C)O)C1Cc2cc3cc(O[C@H]4C[C@@H](O[C@H]5C[C@@H](O)[C@H](O)[C@@H](C)O5)[C@@H](O)[C@@H](C)O4)c(C)c(O)c3c(O)c2C(=O)[C@H]1O[C@H]1C[C@@H](O[C@H]2C[C@@H](O[C@H]3C[C@](C)(O)[C@H](O)[C@@H](C)O3)[C@H](O)[C@@H](C)O2)[C@H](O)[C@@H](C)O1 (stereo partly drawn)	active
CC(C)=O	inactive

Consider the record given below.
Incoming: Just curious, what result did Cc1ccccc1OCC(O)CNCCOc1ccc(C(N)=O)cc1 (stereo not drawn) get here?
Outgoing: inactive

----------
# assayProtocol: Drug repurposing screens with cells derived from glioblastoma tumor samples (AID 1345199); also: % is scaled to controls: 0 for no effect and ±100 for the full control effect; nearly all actives have a fitted effect of over 40% in size
# conditionDetails: GBM patient neurospheres viability, ATP luminescence, 48 h; at 45.9 µM (top of the series); tumour line D
# Description: CD133+ cells were isolated from GBM patient biopsies and cultured as neurospheres. Neurospheres from four patients were used to screen the NCATS pharmaceutical collection (NPC) library of approved drugs and bioactive compounds. […] The neurospheres were incubated with drugs for 48 hours in 1536-well format, then assayed with an ATP content cell viability assay. […]
Inconclusive results are not listed.
Threshold -10%: activity, negative = cell killing strictly smaller gives label 1, otherwise label 0.

CC1=CCC(C(C)(C)O)CC1 (centres undefined)	label 0

Incoming: Please determine if `CCCCC/C=C\C/C=C\CCCCCCCC(=O)O` is below -10% in terms of activity, negative = cell killing.
Outgoing: label 1

Incoming: Does this compound meet the criterion activity, negative = cell killing < -10%? `N[C@H](C(=O)O)[C@@H]1CC(Cl)=NO1`
Outgoing: label 1

Incoming: Input `O=C(COc1ccc(Cl)cc1)OCCNC12CC3CC(CC(C3)C1)C2` ; condition: activity, negative = cell killing strictly below -10%. Does it hold?
Outgoing: label 1

Incoming: Could you please tell me whether activity, negative = cell killing recorded for `CC(C)=O` is less than -10%?
Outgoing: label 1

Incoming: Item `C[C@H]1C[C@H]2[C@@H]3CCC4=CC(=O)C=C[C@]4(C)[C@@]3(F)[C@@H](O)C[C@]2(C)[C@@]1(O)C(=O)CO` : activity, negative = cell killing beneath -10%, strictly?
Outgoing: label 1

Incoming: Lab log: compare recorded activity, negative = cell killing with -10%; is it strictly lower for CC(NNC(=O)c1ccccc1)c1ccccc1 (centres undefined) ?
Outgoing: label 1

Incoming: Lab note: confirm whether the reported activity, negative = cell killing for this compound is below -10%, equality not counting. compound: `CC1=C(/C=C/C(C)=C/C=C/C(C)=C/C=C/C=C(C)/C=C/C=C(C)/C=C/C2=C(C)C(=O)CCC2(C)C)C(C)(C)CCC1=O`
Outgoing: label 0

Incoming: Is activity, negative = cell killing strictly under -10% for the entry `CC(=O)N[C@@H](CC(=O)N[C@@H](CCC(=O)O)C(=O)O)C(=O)O` ?
Outgoing: label 0

Origin of values: PubChem BioAssay (NCATS)
